compounds and their reported Kb
Biological target: leukotriene D4 (longitudinal muscle of guinea pig ileum) (Cavia porcellus)
Construct: The longitudinal muscle was then carefully dissected from the circular muscle of the ileum; from tissue; host or cells: guinea pig terminal ileum, longitudinal muscle segments
Sequence (Q2NNR5 whole entry): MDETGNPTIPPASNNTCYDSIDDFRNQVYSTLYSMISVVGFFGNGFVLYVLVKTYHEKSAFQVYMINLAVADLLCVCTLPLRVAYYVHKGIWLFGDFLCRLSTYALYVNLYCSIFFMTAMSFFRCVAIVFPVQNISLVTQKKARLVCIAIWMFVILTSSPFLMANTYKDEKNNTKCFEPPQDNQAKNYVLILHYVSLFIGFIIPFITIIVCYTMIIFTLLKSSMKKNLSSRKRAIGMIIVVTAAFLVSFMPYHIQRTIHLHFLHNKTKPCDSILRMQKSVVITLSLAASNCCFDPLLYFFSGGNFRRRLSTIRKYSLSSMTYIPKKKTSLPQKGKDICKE
Assay: Antagonism of leukotriene D4 contraction, longitudinal muscle of guinea pig ileum
Format: cell-based
Conditions: LTD4 concentration-response, 15 min preincubation, 1 μM indomethacin, 37° C., Arunlakshana and Schild method; read-out: G.P. ILEUM pA2 (LTD4) (converted)
Answer with a number only, understood to be in nM.

- Compound: "CCCCCCCCCCCCC/C=C\\C(SCCC(=O)O)[C@]1(O)CC[C@H](C(=O)O)CC1 (relative stereo) [Example 10H]"
  Measured on: "leukotriene D4 (longitudinal muscle of guinea pig ileum) (Cavia porcellus)"
  Value type: "Kb"
  Value measured: 0.245
- Compound: "CCCCCCCCCCCCC/C=C\\[C@@H](SCCC(=O)O)[C@]1(O)CC[C@H](C(=O)O)CC1 [Example 10F]"
  Measured on: "leukotriene D4 (longitudinal muscle of guinea pig ileum) (Cavia porcellus)"
  Value type: "Kb"
  Value measured: 0.38
- Compound: "CCCCCCCCCCCCC/C=C\\C(SCCCC(=O)O)[C@]1(O)CC[C@H](C(=O)O)CC1 (relative stereo) [Example 10J]"
  Measured on: "leukotriene D4 (longitudinal muscle of guinea pig ileum) (Cavia porcellus)"
  Value type: "Kb"
  Value measured: 5.5
- Compound: "CCCCCCCCCCCCC/C=C\\C(SCCC(=O)NCC(=O)O)[C@]1(O)CC[C@H](C(=O)O)CC1 (relative stereo) [Example 10L]"
  Measured on: "leukotriene D4 (longitudinal muscle of guinea pig ileum) (Cavia porcellus)"
  Value type: "Kb"
  Value measured: 2.69

Shifting focus to the compound that follows.
Recorded Kb of CCCCCCCCCCCCC/C=C\[C@@H](SCC(=O)O)[C@]1(O)CC[C@H](C(=O)O)CC1 [Example 10D] , please. 0.158

The measurements presented in this section are drawn from patent US4748274A.
